Target: T1, mouse melanocortin 3 receptor (mouse, UniProt P33033 1-323)
T1 construct: whole, on cells; also called mMC3R; MC3R
T1 sequence (P33033 whole entry): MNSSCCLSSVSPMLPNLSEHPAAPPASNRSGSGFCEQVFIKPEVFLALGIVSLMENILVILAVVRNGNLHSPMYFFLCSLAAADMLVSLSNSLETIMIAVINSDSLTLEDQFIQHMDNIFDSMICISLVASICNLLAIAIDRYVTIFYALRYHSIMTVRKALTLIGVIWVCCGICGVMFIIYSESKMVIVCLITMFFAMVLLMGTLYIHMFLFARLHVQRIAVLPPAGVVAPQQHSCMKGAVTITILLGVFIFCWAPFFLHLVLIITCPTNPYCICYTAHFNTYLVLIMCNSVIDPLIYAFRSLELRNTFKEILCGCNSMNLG
Test: 125I-NDP-MSH competition, HEK293 cells
Square brackets hold non-standard residues; d marks the D form. Dap = NC[C@H](N)C(=O)O
This listing pairs binders with measured pIC50.
Note on pIC50: it is the negative log10 of concentration, concentration in mol/L.

These solved cases illustrate the format of a correct answer.
cyclo(PRYF[Dap]AF[dP]) (Phe112Tyr SNP in the Dap scaffold; also called c[Pro-Arg-Tyr-Phe-Dap-Ala-Phe-DPro]) [ZMK 2-112] : 4.55
cyclo(PHFF[Dap]AF[dP]) (Arg111His SNP in the Dap scaffold; also called c[Pro-His-Phe-Phe-Dap-Ala-Phe-DPro]) [ZMK 2-99] : 4.82
cyclo(PCFF[Dap]AF[dP]) (Arg111Cys SNP in the Dap scaffold; also called c[Pro-Cys-Phe-Phe-Dap-Ala-Phe-DPro]) [ZMK 3-20] : 4.31
cyclo(PRFF[Dap]VF[dP]) (Ala115Val SNP in the Dap scaffold; also called c[Pro-Arg-Phe-Phe-Dap-Val-Phe-DPro]) [ZMK 2-85] : 5.00

Problem: Sample cyclo(PRFFNVF[dP]) (Ala115Val SNP in the Asn scaffold; also called c[Pro-Arg-Phe-Phe-Asn-Val-Phe-DPro]) [ZMK 2-82] — what was its pIC50?
Solution: 4.28
